test system: SK-MEL-5 melanoma; experiment: NCI tumour cell line growth inhibition, 48 h
quantity_name: TGI

Recorded TGI, per entry:
O=c1c(Sc2c(O)c3ccccc3c3ccccc3c2=O)c(O)c2ccccc2c2ccccc12
> 100 µM
CC(C)C1OC2(C)OC(=N)C1(C#N)C(C#N)(C#N)C2C (stereo not given)
26.6 µM
O=C1C=C[C@@]23C[C@@H](Nc4c(O)c5c6c(c42)=NCCC=6C=N5)SC3=C1
3.38 µM

Query: I am curious: what TGI value has been reported for N#Cc1c(N)nc(N2CCOCC2)c(C#N)c1-c1ccc(Cl)cc1 ?
Response: > 100 µM

###

test system: SK-MEL-5 melanoma; test: NCI tumour cell line growth inhibition, 48 h
quantity_name: GI50

N#Cc1cccc(C(=O)Nc2cccc(NC(=O)c3cccc(C#N)c3)c2)c1
29200 nM
COc1ccc(C(=O)COc2cccc(/C=C3\CSc4ccccc4C3=O)c2)cc1
1780 nM

Lab note: next compound to report on.
Query: I am curious: what GI50 value has been reported for NC(=NC1CCCCCCC1)c1ccc(N2CCN(c3ccc(C(N)=NC4CCCCCCC4)cc3)CC2)cc1 ?
Response: 1720 nM

###

Each entry below lists one item and its recorded TGI value.
test system: MDA-N; test: NCI tumour cell line growth inhibition, 48 h

Recorded TGI, per entry:
Nc1ncnc2c1ncn2CC(O)C(=O)O (stereo not given)
> 100 µM
C/C([O-])=C1\Cc2ccccc2C1=O.C/C([O-])=C1\Cc2ccccc2C1=O.CC[O-].CC[O-].[Ti+4]
42.3 µM
COC(=O)[C@@H](O)[C@]1(C(=O)OC)C2O[C@@H](OC)[C@@H]1CCCCCC[C@H]2O
> 100 µM
CCCCCCCCCCCCCCCCCCNc1ccn(C2OC(CO)C(O)C2O)c(=O)n1 (stereo not given)
> 100 µM

Lab note: next molecule to report on.
Query: I am curious: what TGI value has been reported for Nc1ccc(C2NC(=O)Cc3c2ccc2ccccc32)cc1 (stereo not given) ?
Response: > 100 µM

###

tested on: 786-0 renal; assay: NCI tumour cell line growth inhibition, 48 h
quantity_name: GI50

Query: I am curious: what GI50 value has been reported for NC(=O)c1cc([N+](=O)[O-])c(Cl)c([N+](=O)[O-])c1 ?
Response: 1.96 µM

Query: I am curious: what GI50 value has been reported for CC1=CCC(OC(=O)C(C)(C)CCC(O)(C(=O)OC2(C(C)C)CCC3(C)OC3C2)C(C)C)(C(C)C)CC1 (stereo not given) ?
Response: 0.616 µM

Query: I am curious: what GI50 value has been reported for CCN(CCNc1ccc(C)c2sc3cc(Cl)ccc3c(=O)c12)CC(C)O (stereo not given) ?
Response: 1.44 µM

Query: I am curious: what GI50 value has been reported for CS(=O)(=O)c1ccc(-c2cnc(N)c(C(=O)Nc3ccccc3)n2)cc1 ?
Response: 3.71 µM

Query: I am curious: what GI50 value has been reported for COc1ccc(-c2nnc(SCC(=O)Nc3ccc(/C(C)=N\O)cc3)n2-c2ccccc2)cc1OC ?
Response: 14.9 µM

Query: I am curious: what GI50 value has been reported for N#Cc1cccc(C(=O)Nc2cccc(NC(=O)c3cccc(C#N)c3)c2)c1 ?
Response: 33.4 µM

Query: I am curious: what GI50 value has been reported for COc1ccc(C(=O)COc2cccc(/C=C3\CSc4ccccc4C3=O)c2)cc1 ?
Response: 1.75 µM

Query: I am curious: what GI50 value has been reported for COc1ccc(-c2cnnn2-c2cc(OC)c3c(c2)OCO3)cc1 ?
Response: 0.544 µM

Query: I am curious: what GI50 value has been reported for CC(C)C[C@H](NC(=O)[C@H]1O[C@@H]1C(=O)O)C(=O)NCCc1ccc(O)cc1 ?
Response: > 100 µM

Query: I am curious: what GI50 value has been reported for CCN1CCN(CC(=O)Nc2nc3ccc(NCc4ccc(Cl)cc4)cc3s2)CC1 ?
Response: 6.38 µM

###

Each entry below lists one item and its recorded TGI value.
system: KM20L2 colon; test: NCI tumour cell line growth inhibition, 48 h
A number alone suffices; assume µM.

Recorded TGI, per entry:
O=C1/C(=C/c2ccc3c(c2)OCO3)CCC1CN1CCOCC1 (stereo unspecified)
36.9
Cc1cc(NC(=O)NC(=O)c2ccccc2N)ccc1Oc1ncc(Br)cn1
0.442
Cc1cc(C)c2c(c1)Nc1ccccc1P2c1ccccc1 (stereo unspecified)
74.7
O=c1c2cccc3cccc(c4oc5c6cccc7cccc(c(=O)c5c14)c76)c32
26.2

Lab note: next molecule to report on.
Query: Please tell me: TGI of COC(=O)C1=C(C(=O)OC)C2C(C)=CC(C)=CN2C(C#N)=C(SC)S1 (stereo unspecified) , system KM20L2 colon?
Response: 86.7

###

test system: MOLT-4 leukemia; test: NCI tumour cell line growth inhibition, 48 h; in the data active means GI50 below about 0.43 µM; inactive means the rest
A correct response names exactly one class from yes (active), no (inactive)

Below are worked cases with known answers.
N=c1c2c(-c3ccccc3)c(-c3ccccc3)n(Cc3ccccc3)c2ncn1CCCO
no
CS(=O)(=O)c1ccc(-c2cnc(N)c(C(=O)Nc3ccccc3)n2)cc1
no
COc1ccc2c(c1)c(-c1nc(-c3c[nH]c4ncccc34)cs1)cn2CCCCN1CCOCC1
no
C[C@H]1[C@H](C)CC[C@]2(C(=O)N3CCN(C)CC3)CC[C@]3(C)C(=CC[C@@H]4[C@@]5(C)C/C(=C/c6cccnc6)C(=O)C(C)(C)[C@@H]5CC[C@]43C)[C@H]12
no
O=C(CCCCCCSc1nc(-c2ccccc2)cc(-c2ccccc2)n1)NO
yes

Query: What classification did O=C(/C=C/c1cccs1)c1ccc(Nc2nc(Nc3ccc(F)cc3)nc(Nc3ccc(F)cc3)n2)cc1 end up with in this test?
Response: no

Query: What classification did N#Cc1c(N)nc(N2CCOCC2)c(C#N)c1-c1ccc(Cl)cc1 end up with in this test?
Response: no

###

Each entry below lists one item and its recorded log10 of TGI value.
test system: HOP-62 NSCLC; assay: NCI tumour cell line growth inhibition, 48 h
// do not treat as linear: log10 of TGI, unit µM

Recorded log10 of TGI, per entry:
C[C@]12CC[C@@H]3c4ccc(O)cc4CC[C@H]3[C@@H]1CC[C@@H]2NS(=O)(=O)c1cccc(C(F)(F)F)c1
1.25
Cc1cc(C)c2c(c1)Nc1ccccc1P2c1ccccc1 (stereo not given)
1.82
CCN1CN(c2ccccc2)C2(CCN(CCCSc3ccc(F)cc3)CC2)C1=O
1.10
c1ccc(C(c2ccccc2)[P+](c2ccccc2)(c2ccccc2)c2ccccc2)cc1
0.82
C(=Nc1ccc(-c2cc(-c3ccccc3)nc3ccc4ccccc4c23)cc1)c1ccccc1
1.75

Query: I am curious: what log10 of TGI value has been reported for NC1=C(Br)C(=O)c2ncccc2C1=O ?
Response: 0.22

Query: I am curious: what log10 of TGI value has been reported for COc1ccc(C(=O)/C=C/c2c(C(F)(F)F)nc3sccn23)cc1OC ?
Response: 1.63

Query: I am curious: what log10 of TGI value has been reported for C=C1CC2(C[C@@H](c3ccccc3)O[C@@H](c3ccccc3)C2)OC1=O (stereo not given in full) ?
Response: 1.45

Query: I am curious: what log10 of TGI value has been reported for COP(=O)(OC)C(=NCc1ccccc1)NNc1ccc([N+](=O)[O-])cc1 ?
Response: 1.86

Query: I am curious: what log10 of TGI value has been reported for O=C1/C(=C/c2ccc([N+](=O)[O-])o2)Oc2ccc(Br)cc21 ?
Response: 1.54

Query: I am curious: what log10 of TGI value has been reported for O=c1[nH]nc2ccccc2c1Cl ?
Response: 1.61

Query: I am curious: what log10 of TGI value has been reported for C=C(C)[C@@H]1CC[C@]2(C(=O)NCCNCCNCCN)CC[C@]3(C)[C@H](CC[C@@H]4[C@@]5(C)CC[C@H](O)C(C)(C)[C@@H]5CC[C@]43C)[C@@H]12 ?
Response: 1.53

###

tested on: HT29 colon; assay: NCI tumour cell line growth inhibition, 48 h
quantity_name: TGI (µM)
A number alone suffices; assume µM.

CCCCNc1c(CN)cnc2cc(Cl)ccc12
37
Cc1ccc(NC(=O)c2cc3ccccc3c(N=Nc3ccccc3O)c2O)c(C)c1
13.8
COc1ccn2c(C(C)=O)cc(C(=O)c3ccc4c(c3)Sc3ccccc3N4)c2c1
0.351
C(=Nc1ccc(-c2cc(-c3ccccc3)nc3ccc4ccccc4c23)cc1)c1ccccc1
40.3

Query: I am curious: what TGI value has been reported for CC1=CCC(OC(=O)C(C)(C)CCC(O)(C(=O)OC2(C(C)C)CCC3(C)OC3C2)C(C)C)(C(C)C)CC1 (configuration not stated) ?
Response: 1.75

Query: I am curious: what TGI value has been reported for C[C@]12CC[C@@H]3c4ccc(O)cc4CC[C@H]3[C@@H]1CC[C@@H]2NS(=O)(=O)c1cccc(C(F)(F)F)c1 ?
Response: 10.2

Query: I am curious: what TGI value has been reported for O=C(/C=C/c1cccs1)c1ccc(Nc2nc(Nc3ccc(F)cc3)nc(Nc3ccc(F)cc3)n2)cc1 ?
Response: 70.5

Query: I am curious: what TGI value has been reported for NC1=C(Br)C(=O)c2ncccc2C1=O ?
Response: 4.3

Query: I am curious: what TGI value has been reported for CC(CN1CCN(C)CC1)CN1c2ccccc2Sc2ccc(C(F)(F)F)cc21 (configuration not stated) ?
Response: 3.27

Query: I am curious: what TGI value has been reported for Cc1nc(Nc2ccc(F)cc2)c2sc(=S)n(-c3ccc(F)cc3)c2n1 ?
Response: 19.9

// provenance: PubChem BioAssay (NCI)
